% inhibition ApPOL 90' for assorted compounds
assayed_system: UniProt:Q8ILY1
assay_summary: Fluorescence-based high-throughput DNA polymerase assay (molecular beacon), primary screen and dose-response
Assay type: biochemical
condition_context: DRC-2; 90'; conc 2.5
Supply the numeric figure in %, leaving out any unit text.

{"compound": "COc1ccccc1C1CC(=O)Oc2cc3c(cc21)OCO3 (stereo not shown) [KU0104502]", "value_units": "%", "% inhibition ApPOL 90'": 1.26}
{"compound": "O=C1NN(c2ccc(Cl)c(Cl)c2)C(=O)/C1=C/c1ccc(-c2ccc3c(c2)C(=O)OC3)o1 [Molecule 90]", "value_units": "%", "% inhibition ApPOL 90'": 30}
{"compound": "COC(=O)c1sc(-c2ccc(C(C)(C)C)cc2)cc1NC(=O)CCC(=O)O [Molecule 87]", "value_units": "%", "% inhibition ApPOL 90'": 9}

Q) Form field: % inhibition ApPOL 90' recorded for CCOc1nc2cccc(C(=O)OC(C)OC(=O)OC3CCCCC3)c2n1Cc1ccc(-c2ccccc2-c2nnn[nH]2)cc1 (stereo not shown) [Molecule 94] with UniProt:Q8ILY1 (enter value)
A) 9

---

assayed_system: P. falciparum apicoplast DNA polymerase (Pf-apPOL) (Plasmodium falciparum, UniProt Q8ILY1)
Sequence (Q8ILY1 entry or part of it): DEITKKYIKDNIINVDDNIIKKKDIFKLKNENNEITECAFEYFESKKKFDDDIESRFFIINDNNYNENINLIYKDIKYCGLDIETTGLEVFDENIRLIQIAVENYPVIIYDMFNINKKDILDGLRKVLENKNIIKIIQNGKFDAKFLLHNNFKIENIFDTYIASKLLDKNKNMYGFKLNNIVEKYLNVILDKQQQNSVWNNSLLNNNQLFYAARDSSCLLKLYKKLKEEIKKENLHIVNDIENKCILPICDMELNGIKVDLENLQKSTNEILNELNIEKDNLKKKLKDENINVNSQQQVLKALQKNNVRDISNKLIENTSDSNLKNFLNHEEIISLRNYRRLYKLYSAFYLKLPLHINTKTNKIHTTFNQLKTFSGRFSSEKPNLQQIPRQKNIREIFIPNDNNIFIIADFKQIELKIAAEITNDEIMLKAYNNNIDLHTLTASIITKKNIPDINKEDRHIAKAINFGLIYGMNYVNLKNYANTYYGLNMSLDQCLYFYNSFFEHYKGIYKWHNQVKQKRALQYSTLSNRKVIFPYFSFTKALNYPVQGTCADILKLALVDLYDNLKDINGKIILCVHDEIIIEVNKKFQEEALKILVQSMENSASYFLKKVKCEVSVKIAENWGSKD
assay_summary: Fluorescence-based high-throughput DNA polymerase assay (molecular beacon), primary screen and dose-response
Format: biochemical
condition_context: DRC-1; read at 180'; concentration 5
% inhibition apPOL 180' 5 for assorted compounds
Supply the numeric figure in %, leaving out any unit text.

// worked examples, % inhibition apPOL 180' 5 included
{"compound": "CC(=O)Nc1cc(C(=O)c2cccs2)nn(-c2ccc(Cl)cc2)c1=O", "value_units": "%", "% inhibition apPOL 180' 5": -7.949}
{"compound": "Cc1nc(C)c2c(n1)N(CC1CCCCC1)C(=O)CC2", "value_units": "%", "% inhibition apPOL 180' 5": 24.5851}
{"compound": "O=C1CSC2=NC3=C(CCc4ccccc43)C(c3cccs3)N12 (stereo not shown)", "value_units": "%", "% inhibition apPOL 180' 5": -0.2424}

Proceeding to the next compound to report its % inhibition apPOL 180' 5.
Q) Would you kindly share the measured % inhibition apPOL 180' 5 for Cc1cc2[nH]c(C(=O)Nc3ccc(F)cc3)c(CN3CCOCC3)c2s1 ?
A) -4.0377

---

assayed_system: P. falciparum apicoplast DNA polymerase (Pf-apPOL) (Plasmodium falciparum)
assay_summary: Fluorescence-based high-throughput DNA polymerase assay (molecular beacon), primary screen and dose-response
Format: biochemical
condition_context: DRC-1; 180'; concentration 80
% inhibition apPOL 180' for assorted compounds
Supply the numeric figure in %, leaving out any unit text.

Q) Would you kindly share the measured % inhibition apPOL 180' for CCN1C(=O)C(=Cc2cccc(OC)c2O)SC1=S ?
A) 79.6969

---

% inhibition Apol 90' 2.5 for assorted compounds
assayed_system: UniProt:Q8ILY1
assay_summary: Fluorescence-based high-throughput DNA polymerase assay (molecular beacon), primary screen and dose-response
Format: biochemical
condition_context: DRC-1; read at 90'; concentration 2.5
Description: The HT assay employs a molecular beacon, a stem-loop DNA template with a Cy3 dye and the Black Hole Quencher on the 3′ and 5′ ends of the DNA, respectively. Pf-apPOL concentration is based on a calculated absorptivity of ε280 = 56750 M^−1 cm^−1. […] To identify apPOL inhibitors we utilised our previously developed high-throughput DNA polymerase assay. […] The assay accurately recapitulates the kinetic behaviour of apPOL, as measured through more conventional low-throughput gel-based assays. […]
Supply the numeric figure in %, leaving out any unit text.

// worked examples, % inhibition Apol 90' 2.5 included
{"compound": "O=C(c1ccccc1)N1CCc2c(nc3cc(-c4ccccc4)[nH]n3c2=O)C1", "% inhibition Apol 90' 2.5 (%)": 4.897}
{"compound": "CC(=O)Nc1cc(C(=O)c2cccs2)nn(-c2ccc(Cl)cc2)c1=O", "% inhibition Apol 90' 2.5 (%)": -1.383}
{"compound": "CCCc1ccc(Oc2coc3cc(OC)ccc3c2=O)cc1", "% inhibition Apol 90' 2.5 (%)": 14.2398}
{"compound": "Cc1ccsc1Cn1c(C)ccc1C", "% inhibition Apol 90' 2.5 (%)": -5.458}

Q) Would you kindly share the measured % inhibition Apol 90' 2.5 for O=C1CSC2=NC3=C(CCc4ccccc43)C(c3cccs3)N12 (centres unmarked) ?
A) -1.656

Q) Would you kindly share the measured % inhibition Apol 90' 2.5 for Cc1nc(C)c2c(n1)N(CC1CCCCC1)C(=O)CC2 ?
A) 24.6813

Q) Would you kindly share the measured % inhibition Apol 90' 2.5 for O=C(CCc1csc(NC(=O)Nc2ccccc2)n1)Nc1nc2ccccc2s1 ?
A) -1.376

Q) Would you kindly share the measured % inhibition Apol 90' 2.5 for Cc1ccc(N2CCC(NC(=O)Cc3cccs3)C2=O)cc1C (centres unmarked) ?
A) -2.123

Q) Would you kindly share the measured % inhibition Apol 90' 2.5 for Cc1cccc(-c2noc(C(=O)NNC(=O)C(Cl)(Cl)Cl)n2)c1 ?
A) -1.588

Q) Would you kindly share the measured % inhibition Apol 90' 2.5 for Cn1nc(-c2nc(-c3ccccc3)no2)c2c1CCN(C(=O)Cc1cccs1)C2 ?
A) -0.451

Q) Would you kindly share the measured % inhibition Apol 90' 2.5 for Nc1cc(Oc2ccc(O)c(N)c2)ccc1O ?
A) 8.186

Q) Would you kindly share the measured % inhibition Apol 90' 2.5 for COc1ccc(C2CC(c3ccc(Cl)cc3Cl)Nc3nc(N)nn32)cc1OC (centres unmarked) ?
A) 28

---

assayed_system: UniProtKB Q8ILY1
assay_summary: Fluorescence-based high-throughput DNA polymerase assay (molecular beacon), primary screen and dose-response
Type: biochemical
condition_context: DRC-2; 5'; conc 10
% inhibition Apo pol 5' for assorted molecules
Answer with the number, then the unit.

{"molecule": "Cc1cccc(C2=N/C(=C\\c3ccc([N+](=O)[O-])o3)C(=O)O2)c1 [KU0058960]", "property_measured": "% inhibition Apo pol 5'", "result": "37%"}
{"molecule": "Cc1cc(C)c2c(c1)C1C=CCC1C(c1ccc(C(=O)O)cc1)N2 (centres unmarked) [Molecule 102]", "property_measured": "% inhibition Apo pol 5'", "result": "55%"}

Q) Would you kindly share the measured % inhibition Apo pol 5' for Cc1ccc(N2NC(=O)/C(=C\c3ccc(O)c([N+](=O)[O-])c3)C2=O)cc1Cl [KU0058427] ?
A) 35%

Q) Would you kindly share the measured % inhibition Apo pol 5' for C=CCOc1c(Br)cc(Br)cc1/C=C1\SC(=N)NC1=O [KU0051640] ?
A) 20%

Q) Would you kindly share the measured % inhibition Apo pol 5' for Cc1ccc(NC(=O)Cn2ccc3c(=O)[nH]ccc32)c(C)c1 [KU0205125] ?
A) 23%

---

assayed_system: P. falciparum apicoplast DNA polymerase (Pf-apPOL) (Plasmodium falciparum)
assay_summary: Fluorescence-based high-throughput DNA polymerase assay (molecular beacon), primary screen and dose-response
Format: biochemical
condition_context: DRC-2; 180'; conc 80
property_measured: % inhibition apPOL 180'

// worked examples, % inhibition apPOL 180' included
{"compound": "Cc1ccc(CNC(=O)c2cnn3c(O)cc(CSc4ccc(Cl)cc4)nc23)cc1 [Molecule 99]", "% inhibition apPOL 180'": "86%"}
{"compound": "O=C1NN(c2ccc(Cl)c(Cl)c2)C(=O)/C1=C/c1ccc(-c2ccc3c(c2)C(=O)OC3)o1 [Molecule 90]", "% inhibition apPOL 180'": "83%"}
{"compound": "O=C(O)c1ccc(COc2cc([N+](=O)[O-])cc3cccnc23)cc1 [KU0058403]", "% inhibition apPOL 180'": "76%"}

Q) Form field: % inhibition apPOL 180' recorded for Cc1ccc(NC(=O)Cn2ccc3c(=O)[nH]ccc32)c(C)c1 [KU0205125] with P. falciparum apicoplast DNA polymerase (Pf-apPOL) (Plasmodium falciparum) (enter value)
A) 82%

---

assayed_system: bacteriophage T4 DNA polymerase (Enterobacteria phage T4, UniProt P04415)
Construct: made in house
Sequence (P04415 whole entry): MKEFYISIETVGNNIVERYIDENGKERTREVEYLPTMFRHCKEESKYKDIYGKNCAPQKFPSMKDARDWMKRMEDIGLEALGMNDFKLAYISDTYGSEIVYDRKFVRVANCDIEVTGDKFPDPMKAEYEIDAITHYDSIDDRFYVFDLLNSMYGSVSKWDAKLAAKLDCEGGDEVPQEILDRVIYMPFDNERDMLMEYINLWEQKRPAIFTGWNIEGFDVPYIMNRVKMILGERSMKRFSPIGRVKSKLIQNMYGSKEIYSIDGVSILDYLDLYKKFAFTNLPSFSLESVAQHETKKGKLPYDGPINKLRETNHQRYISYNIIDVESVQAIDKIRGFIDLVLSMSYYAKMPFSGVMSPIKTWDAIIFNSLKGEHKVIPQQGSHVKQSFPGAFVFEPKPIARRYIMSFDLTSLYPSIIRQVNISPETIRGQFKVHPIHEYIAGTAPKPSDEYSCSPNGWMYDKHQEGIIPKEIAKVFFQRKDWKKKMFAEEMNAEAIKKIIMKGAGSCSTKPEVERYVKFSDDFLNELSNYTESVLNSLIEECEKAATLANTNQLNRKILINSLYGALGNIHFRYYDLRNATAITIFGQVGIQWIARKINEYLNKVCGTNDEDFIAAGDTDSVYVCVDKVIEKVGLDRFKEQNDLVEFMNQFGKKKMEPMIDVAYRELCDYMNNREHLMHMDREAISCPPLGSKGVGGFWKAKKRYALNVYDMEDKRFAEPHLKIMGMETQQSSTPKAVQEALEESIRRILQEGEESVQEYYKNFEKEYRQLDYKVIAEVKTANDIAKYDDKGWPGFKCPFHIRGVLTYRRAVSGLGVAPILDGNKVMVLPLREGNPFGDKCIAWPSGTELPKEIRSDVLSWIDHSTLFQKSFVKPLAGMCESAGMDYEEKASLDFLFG
assay_summary: Counter-screen against bacteriophage T4 DNA polymerase
Type: biochemical
condition_context: DRC-2; 10'; concentration 40
property_measured: % inhibition T4 10' (%)
Supply the numeric figure in %, leaving out any unit text.

// worked examples, % inhibition T4 10' included
{"molecule": "O=C1N=C(Nc2cccc(Cl)c2Cl)S/C1=C\\c1ccco1 [Molecule 3, O=C1N=C(S/C/1=C\\c1ccco1)Nc1cccc(c1Cl)Cl]", "assayed_system": "bacteriophage T4 DNA polymerase (Enterobacteria phage T4, UniProt P04415)", "% inhibition T4 10', %": 29}
{"molecule": "N#CC(=NNc1cc(C(F)(F)F)cc(C(F)(F)F)c1)C(=O)c1ccco1", "assayed_system": "bacteriophage T4 DNA polymerase (Enterobacteria phage T4, UniProt P04415)", "% inhibition T4 10', %": 19}
{"molecule": "COc1ccc(-c2n[nH]cc2Oc2ccc(Cl)cc2)c(O)c1", "assayed_system": "bacteriophage T4 DNA polymerase (Enterobacteria phage T4, UniProt P04415)", "% inhibition T4 10', %": -19}
{"molecule": "Cc1nc(/N=N/c2ccc(C(=O)[O-])cc2)c(COP(=O)([O-])[O-])c(C=O)c1O.[Na+].[Na+].[Na+]", "assayed_system": "bacteriophage T4 DNA polymerase (Enterobacteria phage T4, UniProt P04415)", "% inhibition T4 10', %": -10}
{"molecule": "CCCCC(=O)N1CCc2c(nc3cc(-c4ccccc4Cl)[nH]n3c2=O)C1", "assayed_system": "bacteriophage T4 DNA polymerase (Enterobacteria phage T4, UniProt P04415)", "% inhibition T4 10', %": 4.74}
{"molecule": "Cc1ccc(NC(=O)C2CCN(C(=O)c3cc4ccsc4[nH]3)CC2)c(Br)c1", "assayed_system": "bacteriophage T4 DNA polymerase (Enterobacteria phage T4, UniProt P04415)", "% inhibition T4 10', %": 10}
{"molecule": "O=C(c1c[nH]c2ncccc12)N1CCCC1 [Molecule 63, O=C(c1c[nH]c2c1cccn2)N1CCCC1]", "assayed_system": "bacteriophage T4 DNA polymerase (Enterobacteria phage T4, UniProt P04415)", "% inhibition T4 10', %": 31}

Q) Would you kindly share the measured % inhibition T4 10' for Cc1ccc(-n2nnc(C(=O)O)c2-c2ccccn2)c(F)c1 ?
A) 27
